TEST_TARGET: T1, human CXCR2 (human, UniProt P25025 1-360)
T1 construct: also called CXC chemokine receptor 2; hCXCR2
T1 sequence: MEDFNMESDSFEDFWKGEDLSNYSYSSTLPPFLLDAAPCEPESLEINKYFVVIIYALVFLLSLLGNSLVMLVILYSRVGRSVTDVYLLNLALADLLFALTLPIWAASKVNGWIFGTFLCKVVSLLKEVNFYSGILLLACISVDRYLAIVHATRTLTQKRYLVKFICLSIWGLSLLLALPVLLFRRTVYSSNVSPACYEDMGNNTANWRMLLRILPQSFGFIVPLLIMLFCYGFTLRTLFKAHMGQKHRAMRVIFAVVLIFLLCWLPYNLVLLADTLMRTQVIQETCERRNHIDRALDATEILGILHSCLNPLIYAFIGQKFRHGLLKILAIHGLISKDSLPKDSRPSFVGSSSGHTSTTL
PROTOCOL_TEXT: flow cytometry, transfected Expi293F cells

# BINDER, binding result
rows = [
    ("BKO-5G11 (antibody, human IgG4 S228P, lambda, V domains shown, recombinant human IgG4 S228P, lambda) VH: EVQLLESGGGLVQPGGSLRLSCAVSGFTFSNYAMTWVRQAPGKGLEWVSAISGRGSRTYYADSVKGRFTISRDTSKNTLYLQMNSLRAEDTAVYYCAKMDYWGQGTLVTVSS VL: QSALTQPPSASGSPGQSVTISCTGTSSDVGGYNYVSWYQQHPGKAPKLMIFEVSKRPSGVPDRFSGSKSGNTASLTVSGLQAEDEADYYCSSYAGSNNFGVFGGGTKLTVLG", "binds"),
    ("BKO-9C3_a (antibody, human IgG4 S228P, lambda, V domains shown, recombinant human IgG4 S228P, lambda) VH: EVQVLESGGGLVQPGGSLRLSCAASGFTFRSYAMSWVRQAPGKGLEWVSAISGSGGSTYYADSVKGRFTISRDKSKNTLYLQMNSLRAEDTAVYYCAIQLGYWGQGTLVTVSS VL: QSALTQPPSASGSPGQSVIISCTGTSSDVGGYNYVSWYQQHPGKVPKLMIYEVSKRPSGVPDRFSGSKSGNTASLTVSGLQAEDEADYYCTSYAGSNNFGVFGGGTKLTVLG", "binds"),
    ("BKO-1B10 (antibody, human IgG4 S228P, lambda, V domains shown, recombinant human IgG4 S228P, lambda) VH: QLQLQESGPGLVKPSETLSLTCTVSGGSIRTSSYYWGWIRQPPGKGLEYIGSIYYSGTTYYNPSLKSRVTMSVDTSKNQFSLKLSSVTAADTAVYYCARHGRVREVPPFDYWGQGTLVTVSS VL: SSELTQDPAVSVALGQTVRITCQGDSLRYYYASWYQQKPGQAPVLVIYDENSRPSGIPDRFSGSSSGNTASLRITGTQAEDEADYYCNSRDTSGNHWAFGGGTKLTVLG", "binds"),
]
